experimentalTarget: recombinant rat MASP2 (amino acids 296-685, C-terminal His Tag) (rat, UniProt Q9JJS8 296-685)
Sequence (Q9JJS8 other isoform, or with tags, fused parts or gaps limits assumed): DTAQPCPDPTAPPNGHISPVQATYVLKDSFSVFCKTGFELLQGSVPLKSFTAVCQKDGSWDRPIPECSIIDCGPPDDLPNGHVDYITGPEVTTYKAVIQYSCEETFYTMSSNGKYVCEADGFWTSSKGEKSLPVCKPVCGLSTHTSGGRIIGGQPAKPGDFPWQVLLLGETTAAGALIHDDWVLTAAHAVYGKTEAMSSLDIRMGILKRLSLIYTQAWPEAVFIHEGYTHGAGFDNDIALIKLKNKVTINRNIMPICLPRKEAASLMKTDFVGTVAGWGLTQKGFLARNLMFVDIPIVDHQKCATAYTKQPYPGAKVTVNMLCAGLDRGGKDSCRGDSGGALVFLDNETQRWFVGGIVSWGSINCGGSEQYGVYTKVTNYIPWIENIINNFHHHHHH
testDetails: cell-based or functional assay
*1 amine or outer side, *2 acyl side, *3 side chain or, on linkers, in order; H or OH if unused. Bridges are numbered along the chain shown (N, C = ends). Where no end group is shown, it is not given here. [ ]: non-standard residue; d: D form. Oic = O=C(O)[C@@H]1C[C@@H]2CCCC[C@@H]2N1; Adipoyl = O=C(CCCCC(=O)[*:2])[*:1]; tBuAla = CC(C)(C)C[C@H](N)C(=O)O; Pen = CC(C)(S)[C@H](N)C(=O)O; 4Amb = NCc1ccc(C(=O)O)cc1; Dap = NC[C@H](N)C(=O)O; Ahx = NCCCCCC(=O)O; GABA = NCCCC(=O)O; Sar = CNCC(=O)O
experimentalReadout: rat MASP2 IC50 (nM)

- binder: "cyclo([GABA]ICSRS[tBuAla]PPI[Pen]IPD) (disulfide 3-11; also: TFA salt) [Example 35: (Gamma-Abu)**-IC+SRS-((tBu)A)-PPI-(Pen)+-IPD**]"
  testResult: 24
- binder: "cyclo([Ahx][Sar]ICSRS[tBuAla]PPI[Pen]I) (disulfide 4-12; also: TFA salt) [Example 64: (Ahx)**-((N-Me)G)-IC+SRS-((tBu)A)-PPI-(Pen)+-I**]"
  testResult: 13
- binder: "cyclo([Ahx]AICSRS[tBuAla]PPI[Pen]IP) (disulfide 4-12; also: TFA salt) [Example 53: (Ahx)**-AIC+SRS-((tBu)A)-PPI-(Pen)+-IP**]"
  testResult: 19
- binder: "cyclo(ICSRS[tBuAla]PPI[Pen]IPP) (disulfide 2-10; also: TFA salt) [Example 58: I**C+SRS-((tBu)A)-PPI-(Pen)+-IPP**]"
  testResult: 46
- binder: "cyclo([Ahx]GICSRS[tBuAla]PPI[Pen]IPD) (disulfide 4-12; also: TFA salt) [Example 28: (Ahx)**-GIC+SRS-((tBu)A)-PPI-(Pen)+-IPD**]"
  testResult: 16
- binder: "cyclo([Ahx]ICSRS[tBuAla]PPI[Pen]I) (disulfide 3-11; also: TFA salt) [Example 52: (Ahx)**-IC+SRS-((tBu)A)-PPI-(Pen)+-I**]"
  testResult: 11.6
- binder: "EGICSRSLP[Oic]I[Pen]IPD[Dap]-NH2 (lactam 1-16; disulfide 4-12; also: TFA salt) [Example 93: E++GIC+SRSLP-(Oic)-I-(Pen)+-IPD-(Dap)++-NH2]"
  testResult: 68
- binder: "Adipoyl-ICSRS[tBuAla]PPI[Pen]IPD[Dap]-NH2 (lactam (positions not given here); disulfide 2-10; not fully specified (bridges); also: TFA salt) [Example 60: (Adipic acid)**-IC+SRS-((tBu)A)-PPI-(Pen)+-IPD-(Dap)++-NH2]"
  testResult: 13
- binder: "[Ahx]ICSRSLP[Oic]I[Pen]IPE-NH2 (disulfide 3-11; lactam N-14; also: TFA salt) [Example 75: (Ahx)**-IC+SRSLP-(Oic)-I-(Pen)+-IPE++-NH2]"
  testResult: 1.4
- binder: "cyclo(AGGICSRSLP[Oic]I[Pen]IPD) (disulfide 5-13; also: TFA salt) [Example 92: A**GGIC+SRSLP-(Oic)-I-(Pen)+-IPD**]"
  testResult: 41
- binder: "cyclo(AGGICSRS[tBuAla]PPI[Pen]IP[dD]) (disulfide 5-13; also: TFA salt) [Example 39: A**GGIC+SRS-((tBu)A)-PPI-(Pen)+-IPd**]"
  testResult: 8
- binder: "cyclo([Ahx]AICSRS[tBuAla]PPI[Pen]I) (disulfide 4-12; also: TFA salt) [Example 72: (Ahx)**-AIC+SRS-((tBu)A)-PPI-(Pen)+-I**]"
  testResult: 14
- binder: "cyclo([Ahx][4Amb]ICSRS[tBuAla]PPI[Pen]IP) (disulfide 4-12; also: TFA salt) [Example 68: (Ahx)**-(4-(Aminomethyl)benzoic acid)-IC+SRS-((tBu)A)-PPI-(Pen)+-IP**]"
  testResult: 2.97
- binder: "cyclo([Dap][Dap]ICSRSLP[Oic]I[Pen]IP) (disulfide 4-12; also: TFA salt) [Example 89: (Dap)**-(Dap)-IC+SRSLP-(Oic)-I-(Pen)+-IP**]"
  testResult: 64
- binder: "cyclo([Ahx][Sar]ICSRS[tBuAla]PPI[Pen]IP) (disulfide 4-12; also: TFA salt) [Example 54: (Ahx)**-((N-Me)G)-IC+SRS-((tBu)A)-PPI-(Pen)+-IP**]"
  testResult: 18
